Field: SRS-A Inhibition Ratio %. Provide a value for each of the compounds that follow.
test system: SRS-A (slow reacting substance of anaphylaxis); assay: Anti-SRS-A action using isolated ileus of guinea pigs; settings: 10^-6 M; guinea pig ileus, SRS-A 20 units; 5 min, 1 µM
Give bare numbers, in %.

Exam item: Report SRS-A Inhibition Ratio % for `CC(C)c1ccc2[nH]c(=O)c(C(=O)c3ccccc3Cl)c(O)c2c1` please.
Marked response: 60.0

Exam item: Next entry: `COc1ccc(C(=O)c2c(O)c3ccc([N+](=O)[O-])cc3[nH]c2=O)cc1OC`
Marked response: 26.7

Exam item: Next entry: `O=C(O)c1ccc(C(=O)c2c(O)c3ccccc3[nH]c2=O)cc1`
Marked response: 50.0

Lab note: each compound below needs its SRS-A Inhibition Ratio % filled in.
1. Cc1cccc2c(O)c(C(=O)c3ccccc3)c(=O)[nH]c12 [Example 19, 3-benzoyl-4-hydroxy-8-methyl-2-quinolone]
2. COc1ccc(C(=O)c2c(O)c3cc(C)ccc3[nH]c2=O)cc1OC

Marked response:
1: 19.0; 2: 42.1
